Data provenance is patent US20080124811A1.

# TARGET_OF_ASSAY: T1, human brain natriuretic peptide, cyclic BNP (1-32c) (human, cyclic: ring closed by a disulfide bond between the two cysteine residues; biotinylated or acridinium-labelled in some assays)
# T1 construct: also called hBNP; hBNP 1-32
# ASSAY_METHOD_TEXT: off-rate assay on yeast-displayed scFv by flow cytometry: biotinylated cyclic BNP (1-32c), chase with unlabelled BNP 1-32c, SA:PE, first order decay fit
MEASURED_QUANTITY: koff (s⁻¹)
Numbers only, in s⁻¹.

Exam item: So what's the measured koff for this one? L2 7 (scFv, selected by equilibrium sorting; member of group m17) scFv (VH-linker-VL with V5 and 6His tags), displayed on yeast: QVQLQQPGAELVRPGASVKLSCKASGYTFTSYWMNWVKQRPEQGLEWIGRIDPYDSETHYNQKFKDKAILTVDKSSSTAFVQLTSLTSEDSAVYYCVSDGYWGAGTTVTVSSGPAKELTPLKEAKVSDVVMTQTPLTLSVTTGQPASISCKSSQSLLDSDGKTYLNWLFQRPGESPKLLIYWMTKLESGVPDRFTGSGSGTDFTLKISRVEAEDLGVYYCLQATHFPWTFGGGTKLEIKRAAALESRGPFEGKPIPNPLLGLDSTRTGHHHHHH
Marked response: 0.00015
